- procedure-details: protein stability index of a GFP-peptide fusion (yeast GPS) (PSI 1-4); higher = more stable; sorted into four equal gates, so the index is relative within each strain
- condition-details: san1∆
Classify as follows. Reported protein stability index greater than or equal to 2: true. Reported protein stability index below: false.

Example results:
> print(dat)
                        sequence.data  class
1  VASLSKRNKLLTIFDSV [YJL039C/NUP192]   true
2           LLLAANTHLGARNVQVH [RPS0A]  false
3           GVDNLRRMGILKKILDQ [RPO31]   true

## Input I'd appreciate it if you could say whether ARDAPTKISTLAVKVHG [QCR2] has protein stability index at least equal to 2.
## Output false

## Input Now the same for KKVSRRNARATRAAKIA [RPL13A]
## Output true

## Input Try the sequence NTYKRLVIGIFKRDLLR [YJL039C/NUP192]
## Output false

## Input Also check DIIVAIKIFELKLPADA [IRR1]
## Output false

## Input Now this one: MKEDGLSFVDIVLSKAA [SIR4]
## Output true

## Input Record: GQSAGKLAAIVEIIDQK [RPL14A]
## Output true

## Input Again, but for FPRSRSRSRSSIRSISP [ESC2]
## Output true

## Input Next up: LPSEDSRAQILQIHSRK [RPT5]
## Output true

* * *

- procedure-details: protein stability index of a GFP-peptide fusion (yeast GPS) (PSI 1-4); higher = more stable; sorted into four equal gates, so the index is relative within each strain
- condition-details: san1∆
Quick reference: protein stability index of the listed items.
Answer with the value's number alone.

Example results:
> print(dat)
               sequence.data  observed.measurement
1   ELISYRNESLKNNSSIR [SRB8]                  3.05
2   PKNVKGEEDADEEETAE [RPN1]                  3.01
3  TEQQIEVPEGVTVSIKS [RPL9A]                  1.99
4  KVYYFQGGNNELGTAVG [RPL30]                  2.54

## Input Given the entry GALEEITKDHKVLARQQ [FAS2] , report its measured protein stability index.
## Output 3.01

## Input Input NTSAQHVESDKITAKTQ [IRR1]
## Output 2.95

## Input Moving on to TNILTKVDINADSAVNR [PRP28]
## Output 3.3

## Input // query: GRILQNLLHSYMEKGTQ [YML103C/NUP188]
## Output 1.96

## Input And for LTHRLGGDTCSSDGALC [POP1] ?
## Output 3.17

* * *

- procedure-details: protein stability index of a GFP-peptide fusion (yeast GPS) (PSI 1-4); higher = more stable; sorted into four equal gates, so the index is relative within each strain
- condition-details: san1∆
readout-label: protein stability index
Enter a number only.

> print(dat)
              sequence.data  observed.measurement
1  GDIVRMLETAGFSMNNP [SMC3]                  3.04

## Input # get_value(readout='protein stability index', item= FIKVVNYNHLLPTRYTL [RPL27A] )
## Output 2.07

## Input Can you check LEMSTEDFVKLAPARVR [RPS15] next?
## Output 3.07

## Input And the next one, KRFKRKDNAKISNNLAL [SRP68] ?
## Output 2.26
